assayedTarget: Fatty acid synthase (Homo sapiens, UniProt P49327)
Sequence (P49327 whole entry): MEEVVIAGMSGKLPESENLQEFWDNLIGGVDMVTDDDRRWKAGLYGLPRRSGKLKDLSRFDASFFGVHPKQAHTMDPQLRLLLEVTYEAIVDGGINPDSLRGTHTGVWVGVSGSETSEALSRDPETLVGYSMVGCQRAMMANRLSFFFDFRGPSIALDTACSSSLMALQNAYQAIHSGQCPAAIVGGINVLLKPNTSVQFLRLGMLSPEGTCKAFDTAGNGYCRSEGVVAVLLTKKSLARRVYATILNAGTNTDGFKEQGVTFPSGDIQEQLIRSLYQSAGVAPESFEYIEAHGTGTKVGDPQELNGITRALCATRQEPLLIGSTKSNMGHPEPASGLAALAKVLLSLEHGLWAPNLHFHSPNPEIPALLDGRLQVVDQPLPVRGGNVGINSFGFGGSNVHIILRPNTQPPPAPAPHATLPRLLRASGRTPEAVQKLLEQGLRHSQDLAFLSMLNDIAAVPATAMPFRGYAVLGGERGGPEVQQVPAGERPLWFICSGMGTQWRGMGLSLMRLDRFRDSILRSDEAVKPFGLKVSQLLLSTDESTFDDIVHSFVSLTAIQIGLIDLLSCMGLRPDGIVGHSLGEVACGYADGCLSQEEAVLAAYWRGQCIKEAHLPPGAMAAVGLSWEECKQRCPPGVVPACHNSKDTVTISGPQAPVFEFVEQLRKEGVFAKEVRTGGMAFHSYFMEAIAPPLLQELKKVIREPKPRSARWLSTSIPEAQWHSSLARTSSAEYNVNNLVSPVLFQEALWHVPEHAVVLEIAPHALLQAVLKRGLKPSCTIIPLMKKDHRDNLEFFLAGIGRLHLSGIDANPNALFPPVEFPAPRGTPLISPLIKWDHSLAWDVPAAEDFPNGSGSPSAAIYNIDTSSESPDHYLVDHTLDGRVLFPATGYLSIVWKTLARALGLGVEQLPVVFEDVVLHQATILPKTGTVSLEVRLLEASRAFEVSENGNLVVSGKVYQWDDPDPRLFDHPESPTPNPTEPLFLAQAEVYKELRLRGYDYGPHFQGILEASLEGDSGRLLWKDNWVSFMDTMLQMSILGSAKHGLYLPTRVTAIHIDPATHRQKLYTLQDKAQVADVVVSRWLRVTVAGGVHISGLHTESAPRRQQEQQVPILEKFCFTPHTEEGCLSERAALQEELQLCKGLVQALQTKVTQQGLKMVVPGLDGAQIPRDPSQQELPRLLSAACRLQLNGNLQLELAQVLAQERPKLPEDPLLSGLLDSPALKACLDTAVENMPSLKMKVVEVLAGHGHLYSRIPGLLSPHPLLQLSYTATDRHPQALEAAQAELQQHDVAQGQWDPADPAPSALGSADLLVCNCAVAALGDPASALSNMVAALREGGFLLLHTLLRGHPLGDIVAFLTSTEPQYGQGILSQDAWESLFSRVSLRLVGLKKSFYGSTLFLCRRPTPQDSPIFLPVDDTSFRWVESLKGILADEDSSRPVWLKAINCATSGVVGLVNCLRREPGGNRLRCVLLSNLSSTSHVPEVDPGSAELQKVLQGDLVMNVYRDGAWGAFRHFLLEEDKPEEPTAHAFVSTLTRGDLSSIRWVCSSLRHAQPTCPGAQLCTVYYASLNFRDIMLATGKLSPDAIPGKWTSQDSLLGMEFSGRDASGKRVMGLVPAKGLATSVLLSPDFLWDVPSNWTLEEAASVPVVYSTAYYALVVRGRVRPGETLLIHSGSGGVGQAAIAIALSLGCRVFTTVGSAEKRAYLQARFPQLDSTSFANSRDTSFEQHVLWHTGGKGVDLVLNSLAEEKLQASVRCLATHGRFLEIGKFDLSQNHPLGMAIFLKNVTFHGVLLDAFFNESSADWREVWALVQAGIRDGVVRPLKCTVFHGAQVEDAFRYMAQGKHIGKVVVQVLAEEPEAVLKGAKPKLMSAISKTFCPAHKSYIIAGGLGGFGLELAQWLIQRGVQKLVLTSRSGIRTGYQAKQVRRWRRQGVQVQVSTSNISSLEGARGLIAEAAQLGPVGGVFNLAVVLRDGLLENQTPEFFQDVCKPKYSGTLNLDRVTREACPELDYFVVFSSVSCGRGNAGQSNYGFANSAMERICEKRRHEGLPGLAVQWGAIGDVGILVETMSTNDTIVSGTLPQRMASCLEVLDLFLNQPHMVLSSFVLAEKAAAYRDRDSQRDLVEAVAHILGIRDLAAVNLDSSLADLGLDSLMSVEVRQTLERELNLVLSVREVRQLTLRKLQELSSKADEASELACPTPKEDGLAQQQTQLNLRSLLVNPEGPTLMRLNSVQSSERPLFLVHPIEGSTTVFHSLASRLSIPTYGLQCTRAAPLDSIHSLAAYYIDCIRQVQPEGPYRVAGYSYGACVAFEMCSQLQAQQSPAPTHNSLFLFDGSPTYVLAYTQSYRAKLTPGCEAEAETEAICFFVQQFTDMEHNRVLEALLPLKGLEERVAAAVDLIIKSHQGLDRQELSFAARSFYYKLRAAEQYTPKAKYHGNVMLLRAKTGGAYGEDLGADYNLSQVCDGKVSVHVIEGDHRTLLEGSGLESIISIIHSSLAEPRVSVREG
experimentNotes: inhibition of human FAS-TE enzyme activity – biochemical, kinetic fluorescence intensity, dose response (AID 624326);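 also: rate of fluorescence rise from hydrolysis of a fluorogenic O-methyl fluorescein ester substrate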
Type: functional
Calls of active or inactive are those of the source.
recordedEndpoint: IC50

Guide cases for IC50, answers given:
compound | recordedEndpoint | result
CCCNC(=O)c1nnsc1S(=O)(=O)c1ccc(Cl)cc1 | IC50 | 10.4 µM (active)
CCOc1ccc(C2CC(=O)N(Nc3ccc([N+](=O)[O-])cc3[N+](=O)[O-])C2=O)cc1 (stereo unspecified) | IC50 | 1.44 µM (active)
O=S(=O)(c1ccc(N2CCC(c3ccc(Cl)cc3)=N2)cc1)N(CCO)CCO | IC50 | 0.469 µM (active)
CCNc1ccc(S(=O)(=O)N(C)C)cc1NCC(=O)Nc1ccc(F)c(Cl)c1 | IC50 | 18.2 µM (active)
CC(C)(C)c1ccc(COC(=O)CN2C(=O)NC3(CCCC3)C2=O)cc1 | IC50 | 5.17 µM (active)
CCn1cc(C(=O)NCc2ccco2)c(=O)c2cc(S(=O)(=O)N3CCC(C)CC3)ccc21 | IC50 | 3.21 µM (active)
Cc1c([N+](=O)[O-])cc(S(=O)(=O)Nc2ccc(-c3ccc(N4CCCC4)nn3)cc2)cc1[N+](=O)[O-] | IC50 | 0.524 µM (active)
CC(C)[C@H](NC(=O)OC(C)(C)C)c1nnc(S(=O)(=O)Cc2c(F)cccc2Cl)o1 | IC50 | 1.61 µM (active)

Field: IC50. Fill in for each record below.
1. CSC(=Nc1ccccc1)N=C(SCc1ccccc1)N(C)C
2. O=C(COC(=O)c1cc(F)c(F)cc1Cl)NC1CCCCCC1
3. CCCCN(C=O)c1c(CC)nc2c(OCc3ccc(Cl)cc3Cl)cccn12

*A*
1.04 µM (active)
6.86 µM (active)
8.19 µM (active)

* * *

assayedTarget: Heat shock factor protein 1 (Mus musculus, UniProt P38532)
Sequence (P38532 whole entry): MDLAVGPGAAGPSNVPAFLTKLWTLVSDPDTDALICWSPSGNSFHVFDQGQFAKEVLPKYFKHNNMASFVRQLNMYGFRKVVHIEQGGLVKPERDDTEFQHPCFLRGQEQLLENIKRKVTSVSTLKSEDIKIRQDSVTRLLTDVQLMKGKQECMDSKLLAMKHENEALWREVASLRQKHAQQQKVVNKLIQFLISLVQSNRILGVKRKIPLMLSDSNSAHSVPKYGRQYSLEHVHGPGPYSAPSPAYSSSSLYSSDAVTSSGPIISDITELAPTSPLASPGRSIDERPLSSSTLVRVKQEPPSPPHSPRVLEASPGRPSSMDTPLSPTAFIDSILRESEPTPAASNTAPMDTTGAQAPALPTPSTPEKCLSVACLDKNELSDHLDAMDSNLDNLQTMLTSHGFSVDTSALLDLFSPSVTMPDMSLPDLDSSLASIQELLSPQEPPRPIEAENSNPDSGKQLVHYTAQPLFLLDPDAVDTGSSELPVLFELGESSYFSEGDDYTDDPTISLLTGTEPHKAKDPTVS
experimentNotes: decrease of HSF1-responsive luciferase luminescence – cell-based, NIH3T3, dose retest, confirmation (AID 2382);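 also: NIH3T3 fibroblasts with HSF1-driven luciferase reporter stressed by proteasome inhibitor MG132; luminescence from HSF1-driven luciferase expression after 8 hours of MG132 stress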
Type: functional
The source made the active and inactive calls.
recordedEndpoint: EC50

molecule | EC50
O=C1C(Cl)=C(Nc2ccc3cn[nH]c3c2)C(=O)c2ccccc21 | 5.42 µM (active)
COc1cccc2cc(C(=O)NCc3ccco3)/c(=N/c3ccc(C(=O)O)cc3)oc12 | > 195 µM (not active)
CCOc1ccc(OCc2cccc(C(=O)O)c2)cc1 | < 0.16 µM (active)
COc1cc(CN2CCN(c3cccc(C)c3C)CC2)cc(OC)c1O | > 195 µM (not active)
CC(C)(C)OC(=O)N1CCN(C(=O)c2[nH]cnc2C(=O)NCC(=O)OCc2ccccc2)CC1 | > 195 µM (not active)

Field: EC50. Fill in for each record below.
1. O=C(COC(=O)c1ccccc1-n1cnnn1)c1ccc(F)cc1
2. COc1ccc(C(=O)NNC(=O)c2cnccn2)cc1[N+](=O)[O-]
3. O=C1COc2ccc(N3C(=O)C=CC3=O)cc2N1

*A*
1: 50.2 µM (active); 2: > 195 µM (not active); 3: 9.09 µM (active)

Field: EC50. Fill in for each record below.
1. CCOc1c(C)cc(S(=O)(=O)NCc2cccnc2)c(C)c1C
2. CCOc1ccccc1-n1c(SCC(=O)Nc2ccccc2C(=O)O)nc2ccccc2c1=O
3. COc1cc(OC)c(OC)cc1/C=N/NC(=S)NCC1CCCO1 (configuration not stated)
4. COc1cccc(Nc2ccc(C(=O)O)cc2N)c1
5. Cc1nc2c(ccc3nc(NC(=O)Cc4cccc5ccccc45)sc32)s1

*A*
1: > 195 µM (not active); 2: 4.46 µM (active); 3: > 195 µM (not active); 4: > 195 µM (not active); 5: > 195 µM (not active)

Field: EC50. Fill in for each record below.
1. CCOc1cc(OCC)cc(C(=O)O)c1
2. CC12CCC(C/C1=N\NC1=NC(=O)/C(=C\c3ccc(Cl)cc3)S1)C2(C)C (configuration not stated)
3. CN1CCN(c2ccc(NC(=O)N3CCc4ccccc43)cc2)CC1
4. CC(NC(=O)/C(C#N)=C/c1ccc([N+](=O)[O-])o1)c1ccccc1 (configuration not stated)
5. CCOC(=O)Cc1cnc(NC(=O)c2ccccc2)s1
6. Nc1nc(NC(=O)C(Cl)(Cl)Cl)nn1-c1ccccc1
7. Cc1cc(C)cc(SCc2noc(C(=O)NCc3ccccc3)c2C(=O)NCc2ccccc2)c1

*A*
1. > 195 µM (not active)
2. 1.2 µM (active)
3. < 0.16 µM (active)
4. 6.1 µM (active)
5. > 195 µM (not active)
6. > 195 µM (not active)
7. > 195 µM (not active)

Field: EC50. Fill in for each record below.
1. Cc1ccc(-c2nnn(CC(=O)N(Cc3cccs3)C(C(=O)NC3CCCC3)c3ccncc3)n2)cc1 (configuration not stated)
2. Cc1ccc(N(C)C(=O)CN(C)S(=O)(=O)c2ccc3c(c2)n(C)c(=O)c(=O)n3C)cc1

*A*
1: > 195 µM (not active); 2: > 195 µM (not active)
